Biological target: T1, FcRL3, overexpressed on 3T3 cells (UniProt Q96P31 18-734, limits assumed)
T1 construct: whole, on cells
T1 sequence (looked up): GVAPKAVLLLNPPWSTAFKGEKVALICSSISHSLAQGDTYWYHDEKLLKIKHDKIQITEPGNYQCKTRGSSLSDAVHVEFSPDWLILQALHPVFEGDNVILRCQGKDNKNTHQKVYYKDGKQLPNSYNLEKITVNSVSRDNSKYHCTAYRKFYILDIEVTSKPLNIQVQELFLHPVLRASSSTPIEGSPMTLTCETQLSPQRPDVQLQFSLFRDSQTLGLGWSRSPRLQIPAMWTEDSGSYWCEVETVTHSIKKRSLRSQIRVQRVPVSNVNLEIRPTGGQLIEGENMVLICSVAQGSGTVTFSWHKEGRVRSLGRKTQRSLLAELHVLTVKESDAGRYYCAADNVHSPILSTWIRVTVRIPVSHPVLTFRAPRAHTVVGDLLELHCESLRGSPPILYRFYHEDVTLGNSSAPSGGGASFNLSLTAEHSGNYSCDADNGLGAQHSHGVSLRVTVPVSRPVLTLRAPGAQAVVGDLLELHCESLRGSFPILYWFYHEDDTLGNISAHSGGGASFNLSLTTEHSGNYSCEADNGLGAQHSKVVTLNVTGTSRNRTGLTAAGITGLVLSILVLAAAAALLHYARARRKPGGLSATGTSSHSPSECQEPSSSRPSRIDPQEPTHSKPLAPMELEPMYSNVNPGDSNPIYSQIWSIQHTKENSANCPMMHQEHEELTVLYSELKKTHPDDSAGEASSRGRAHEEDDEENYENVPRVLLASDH
Assay: phage clone on 3T3-FcRL3 cells

{"binder": "ET200-019 (scFv, screened as phage clone; entry is VL-linker-VH-His tag-HA tag) scFv: NFMLTQPHSVSESPGKTVTISCTRSSGSIASNYVQWYQQRPGSAPTTVIYEDNQRPSGVPDRFSGSIDSSSNSASLTISGLKTEDEADYYCQSYDSSNSWVFGGGTKLTVLGSRGGGGSGGGGSGGGGSLEMAQVQLVQSGAEVKRPGSSVKVSCTASGGTFSSDAISWVRQAPGQGLEWMGGIIPMFGTANYAQKFQGRVTITADESTSTAYMELSSLRSEDTAVYYCAREGYYYPSAYLGSVLNDISSVYDEWGQGTLVTVSSTSGQAGQHHHHHHGAYPYDVPDYAS", "binding result": "no binding"}
{"binder": "ET200-108 (scFv, screened as phage clone; entry is VL-linker-VH-His tag-HA tag) scFv: QSVLTQPPSVSAPPGQKVTISCSGSSSNIGNNYVSWYQQFPGTAPKLLIYDNNKRPSGISDRFSGSKSGTSATLGIAGLQTGDEADYYCGTWDTSLSGFYVFGSGTKVTVLGSRGGGGSGGGGSGGGGSLEMAEVQLVQSGAEVKKPGASVKVSCKASGYTFTSYTISWVRQAPGQGLEWMGWISTYNGLTNYAQNLQGRVTMTTDTFTTTAYMELRSLRSDDTAVYYCVREGSPDYGDFASFDYWGQGTLVTVSSTSGQAGQHHHHHHGAYPYDVPDYAS", "binding result": "no binding"}

src = patent US20210388081A1
